target: Protein farnesyltransferase (Homo sapiens) (UniProt P49354+P49356); experiment: Activity as substrate for recombinant mammalian Farnesyltransferase expressed in baculovirus; activity expressed as Vmax relative to the Vmax of E,E-FPP
Listing of recorded Krel by entry.

entry smiles | study target | Krel
CC(C)=CCC/C(C)=C/CC/C(C)=C\CC/C(C)=C/COP(=O)(O)OP(=O)(O)O | Protein farnesyltransferase (Homo sapiens) (UniProt P49354+P49356) | 0.4
CC(C)=CCC/C(C)=C/CC/C(C)=C\COP(=O)(O)OP(=O)(O)O | Protein farnesyltransferase (Homo sapiens) (UniProt P49354+P49356) | 0.47
CC(C)=CCC/C(C)=C/CC/C(C)=C/CC/C(C)=C\COP(=O)(O)OP(=O)(O)O | Protein farnesyltransferase (Homo sapiens) (UniProt P49354+P49356) | 0.67
CC(C)=CCC/C(C)=C\CC/C(C)=C/COP(=O)(O)OP(=O)(O)O | Protein farnesyltransferase (Homo sapiens) (UniProt P49354+P49356) | 0.41

Reference source for all entries: ChEMBL document CHEMBL1134716
